# Assay System: T1, human TL1A extracellular domain with N-terminal HIS and FLAG tag (human, UniProt O95150 72-251)
# T1 construct: the whole entry is named
# T1 sequence: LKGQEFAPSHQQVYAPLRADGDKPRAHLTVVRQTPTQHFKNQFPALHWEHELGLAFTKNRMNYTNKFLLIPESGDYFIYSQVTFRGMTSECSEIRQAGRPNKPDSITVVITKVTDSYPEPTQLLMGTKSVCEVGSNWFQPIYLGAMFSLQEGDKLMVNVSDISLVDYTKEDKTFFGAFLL
# Assay: SPR Run 6, purified Ab captured on Protein A, TL1A 5 ug/mL, timepoint 170
Result Type: TL1A Binding Level (Late) (RU)
Give just the number in RU; leave the unit off.

Lookup: Look up TL1A Binding Level (Late) for this binder: 320-435 (antibody, human IgG1, name in Kabat numbering, V domains shown, human IgG1, lambda) VH: QVQLVQSGAEVKKPGASVKVSCKASGYTFTLYDINWVRQAPGQGLEWMGWLNPNSGNTGYAQKFQGRVTMTADRSTSTAYMELSSLRSEDTAVYYCAREVPETAAFEYWGQGTLVTVSS VL: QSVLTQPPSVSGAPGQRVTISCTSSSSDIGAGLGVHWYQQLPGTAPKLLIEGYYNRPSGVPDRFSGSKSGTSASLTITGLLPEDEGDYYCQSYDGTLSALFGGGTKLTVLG
Found: 83

Lookup: Look up TL1A Binding Level (Late) for this binder: 320-479 (antibody, human IgG1, name in Kabat numbering, V domains shown, human IgG1, lambda) VH: QVQLVQSGAEVKKPGASVKVSCKASGYTFTSYDINWVRQAPGQGLEWMGWLNPNSGNTGYWQKFQGRVTMTADRSTSTAYMELSSLRSEDTAVYYCAREVPETAAFEYWGQGTLVTVSS VL: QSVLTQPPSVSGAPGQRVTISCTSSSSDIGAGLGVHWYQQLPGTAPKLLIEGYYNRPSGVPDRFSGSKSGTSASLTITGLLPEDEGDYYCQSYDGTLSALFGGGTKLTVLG
Found: 54
